Item-by-item account of pIC50
- STUDY SYSTEM: Recombinant human FGFR2 (Homo sapiens)
- Sequence (P21802 22-821): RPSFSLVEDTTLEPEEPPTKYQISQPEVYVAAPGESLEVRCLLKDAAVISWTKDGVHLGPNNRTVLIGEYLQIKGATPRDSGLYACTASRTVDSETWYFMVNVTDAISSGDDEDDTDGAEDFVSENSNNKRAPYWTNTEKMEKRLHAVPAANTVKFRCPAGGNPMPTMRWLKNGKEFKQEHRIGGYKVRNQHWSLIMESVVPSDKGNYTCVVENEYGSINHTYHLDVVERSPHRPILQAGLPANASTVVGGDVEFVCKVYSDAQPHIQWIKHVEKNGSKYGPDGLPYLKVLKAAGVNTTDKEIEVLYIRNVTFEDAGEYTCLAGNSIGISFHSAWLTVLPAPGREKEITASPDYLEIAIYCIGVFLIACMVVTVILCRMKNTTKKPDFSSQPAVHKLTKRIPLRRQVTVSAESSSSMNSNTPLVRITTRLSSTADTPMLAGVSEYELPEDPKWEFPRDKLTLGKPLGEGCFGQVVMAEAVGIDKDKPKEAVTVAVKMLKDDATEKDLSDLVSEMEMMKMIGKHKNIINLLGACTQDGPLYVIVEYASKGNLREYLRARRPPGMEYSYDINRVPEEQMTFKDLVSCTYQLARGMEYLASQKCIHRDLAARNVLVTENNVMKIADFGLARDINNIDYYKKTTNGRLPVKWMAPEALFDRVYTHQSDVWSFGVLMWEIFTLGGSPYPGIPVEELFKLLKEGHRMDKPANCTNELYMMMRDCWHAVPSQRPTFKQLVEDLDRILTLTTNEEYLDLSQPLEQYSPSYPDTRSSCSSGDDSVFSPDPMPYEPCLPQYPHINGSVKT
- ASSAY OVERVIEW: Transcreener Kinase Assay of FGFR2
- Format: biochemical
- CONDITIONS USED: read-out: FGFR2 (FP) IC50
- Procedure: Transcreener Kinase Assay of FGFR2 • Compounds were solved in DMSO and were diluted with assay buffer to 5 folds of final concentration keeping the DMSO concentration at 5%. […] • [ADP] in Compound well represents the ADP concentration in compound well. • [ADP] in Positive control well represents the ADP concentration in 5% DMSO well • Conversion of mP value to ADP concentration is calculated based on the formula which determined by standard curve. […] IC50: calculated using XL-Fit 2.0 software.
pIC50: −log10 of the molar value.

{"columns": ["COMPOUND", "pIC50"],
 "data": [
  ["CNC(=O)c1cc(COc2cnc(Nc3ccc(O)cc3)nc2)c(F)c(OC)c1", 8.05],
  ["CNC(=O)c1cc(COc2cnc(Nc3ccc(N4C[C@@H](C)N[C@@H](C)C4)c(C)c3)nc2)c(F)c(OC)c1", 7.85],
  ["CONC(=O)c1cc(CCc2cnc(Nc3ccc(N4CCN(CCO)CC4)cc3)nc2)cc(OC)c1", 8.30],
  ["CCn1cc(Nc2ncc(OCc3cc(C(=O)NC)cc(OC)c3F)cn2)cn1", 8.30],
  ["CNC(=O)c1cc(CCc2cnc(Nc3cnn(CCO)c3)nc2)c(Cl)c(OC)c1", 8.30],
  ["CNC(=O)c1cc(CCc2cnc(Nc3cnn([C@@H]4CCN(C)C4)c3)nc2)c(F)c(OC)c1", 7.85],
  ["CNC(=O)c1cc(CCc2cnc(Nc3cn[nH]c3)nc2)c(F)c(OC)c1", 8.15],
  ["CNC(=O)c1cc(CCc2cnc(Nc3cnn([C@@H]4CCCN(C)C4)c3)nc2)c(F)c(OC)c1", 8.15]
]}

====

- STUDY SYSTEM: Recombinant human FGFR1 (Homo sapiens, UniProt P11362)
- Sequence (P11362 22-822): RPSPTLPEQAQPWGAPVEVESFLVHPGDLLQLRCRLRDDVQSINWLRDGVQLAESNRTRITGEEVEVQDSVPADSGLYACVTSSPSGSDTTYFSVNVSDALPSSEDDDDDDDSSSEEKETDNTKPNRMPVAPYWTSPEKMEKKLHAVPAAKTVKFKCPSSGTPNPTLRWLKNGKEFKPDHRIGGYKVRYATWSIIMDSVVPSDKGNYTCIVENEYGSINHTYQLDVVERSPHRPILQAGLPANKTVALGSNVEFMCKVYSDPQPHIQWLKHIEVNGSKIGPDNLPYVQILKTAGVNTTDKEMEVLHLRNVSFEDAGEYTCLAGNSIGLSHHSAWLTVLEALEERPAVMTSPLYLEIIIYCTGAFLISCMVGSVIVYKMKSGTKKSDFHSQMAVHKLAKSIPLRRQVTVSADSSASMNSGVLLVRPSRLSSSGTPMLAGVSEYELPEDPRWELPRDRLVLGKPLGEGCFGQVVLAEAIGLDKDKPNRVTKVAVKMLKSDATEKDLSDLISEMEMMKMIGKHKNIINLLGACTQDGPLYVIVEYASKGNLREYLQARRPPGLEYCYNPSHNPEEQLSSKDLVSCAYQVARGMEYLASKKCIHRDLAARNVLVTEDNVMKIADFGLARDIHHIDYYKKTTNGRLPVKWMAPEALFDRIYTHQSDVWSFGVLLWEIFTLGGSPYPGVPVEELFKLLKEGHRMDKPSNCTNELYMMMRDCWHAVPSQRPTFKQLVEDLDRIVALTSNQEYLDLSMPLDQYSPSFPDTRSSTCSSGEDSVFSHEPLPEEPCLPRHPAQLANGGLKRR
- ASSAY OVERVIEW: Transcreener Kinase Assay of FGFR1
- Assay type: biochemical
- CONDITIONS USED: read-out: FGFR1 (FP) IC50
Item-by-item account of IC50

{"columns": ["COMPOUND", "STUDY SYSTEM", "IC50, nM"],
 "data": [
  ["CNC(=O)c1cc(COc2cnc(Nc3ccc(N4CCNCC4)cc3)nc2)c(F)c(OC)c1", "Recombinant human FGFR1 (Homo sapiens, UniProt P11362)", 8],
  ["CNC(=O)c1cc(CCc2cnc(Nc3cnn(C4CCC4)c3)nc2)c(F)c(OC)c1", "Recombinant human FGFR1 (Homo sapiens, UniProt P11362)", 25],
  ["CNC(=O)c1cc(CCc2cnc(Nc3ccc(N4C[C@@H](C)N[C@@H](C)C4)nc3)nc2)c(Cl)c(OC)c1", "Recombinant human FGFR1 (Homo sapiens, UniProt P11362)", 10],
  ["CONC(=O)c1cc(CCc2cnc(Nc3cn[nH]c3)nc2)cc(OC)c1", "Recombinant human FGFR1 (Homo sapiens, UniProt P11362)", 8],
  ["CNC(=O)c1cc(CCc2cnc(Nc3cnn(C[C@@H](C)O)c3)nc2)c(Cl)c(OC)c1", "Recombinant human FGFR1 (Homo sapiens, UniProt P11362)", 15],
  ["CCN(CC)CCn1cc(Nc2ncc(CCc3cc(C(=O)NC)cc(OC)c3Cl)cn2)cn1", "Recombinant human FGFR1 (Homo sapiens, UniProt P11362)", 17],
  ["CNC(=O)c1cc(CCc2cnc(Nc3ccc(C)nc3)nc2)c(F)c(OC)c1", "Recombinant human FGFR1 (Homo sapiens, UniProt P11362)", 20],
  ["CONC(=O)c1cc(CCc2cnc(Nc3cnn(C)c3)nc2)c(F)c(OC)c1", "Recombinant human FGFR1 (Homo sapiens, UniProt P11362)", 3],
  ["CCN1CCN(c2ccc(Nc3ncc(CCc4cc(C(=O)NOC)cc(OC)c4F)cn3)cc2)CC1", "Recombinant human FGFR1 (Homo sapiens, UniProt P11362)", 2],
  ["CNC(=O)c1cc(CCc2cnc(Nc3cnn(CC(=O)N4CCN(C)CC4)c3)nc2)c(F)c(OC)c1", "Recombinant human FGFR1 (Homo sapiens, UniProt P11362)", 13],
  ["CNC(=O)c1cc(CCc2cnc(Nc3cnn(C(C)C)c3)nc2)c(Cl)c(OC)c1", "Recombinant human FGFR1 (Homo sapiens, UniProt P11362)", 9],
  ["CNC(=O)c1cc(CCc2cnc(Nc3ccc(C(=O)N4CCN(C)CC4)cc3)nc2)c(Cl)c(OC)c1", "Recombinant human FGFR1 (Homo sapiens, UniProt P11362)", 11],
  ["CCn1cc(Nc2ncc(CCc3cc(C(=O)NC)cc(OC)c3F)cn2)c(C)n1", "Recombinant human FGFR1 (Homo sapiens, UniProt P11362)", 107],
  ["CCNC(=O)c1cc(CCc2cnc(Nc3cnn(C)c3)nc2)c(Cl)c(OC)c1", "Recombinant human FGFR1 (Homo sapiens, UniProt P11362)", 19],
  ["CNC(=O)c1cc(CCc2cnc(Nc3cnn([C@H]4CCCN(C)C4)c3)nc2)c(F)c(OC)c1", "Recombinant human FGFR1 (Homo sapiens, UniProt P11362)", 9],
  ["CONC(=O)c1cc(CCc2cnc(Nc3ccc(N4C[C@@H](C)N[C@@H](C)C4)c(C)c3)nc2)cc(OC)c1", "Recombinant human FGFR1 (Homo sapiens, UniProt P11362)", 6],
  ["CNC(=O)c1cc(CCc2cnc(Nc3ccc(N4CCOCC4)cc3)nc2)c(F)c(OC)c1", "Recombinant human FGFR1 (Homo sapiens, UniProt P11362)", 18],
  ["CCONC(=O)c1cc(CCc2cnc(Nc3ccc(N4CCN(CC)CC4)cc3)nc2)cc(OC)c1", "Recombinant human FGFR1 (Homo sapiens, UniProt P11362)", 14],
  ["CCN1CCN(c2ccc(Nc3ncc(CCc4cc(OC)cc(C(=O)NC5CC5)c4)cn3)cc2)CC1", "Recombinant human FGFR1 (Homo sapiens, UniProt P11362)", 132],
  ["CCn1cc(Nc2ncc(OCc3c(F)c(OC)cc(C(=O)NC)c3F)cn2)cn1", "Recombinant human FGFR1 (Homo sapiens, UniProt P11362)", 11],
  ["CCN1CCN(c2ccc(Nc3ccc(CCc4cc(C(=O)NOC)cc(OC)c4C)cn3)cc2)CC1", "Recombinant human FGFR1 (Homo sapiens, UniProt P11362)", 6],
  ["CNC(=O)c1cc(CCc2cnc(Nc3cnn(C(F)F)c3)nc2)c(Cl)c(OC)c1", "Recombinant human FGFR1 (Homo sapiens, UniProt P11362)", 15],
  ["CNC(=O)c1cc(CCc2cnc(Nc3cnn(C4CCN(C)CC4)c3)nc2)c(F)c(OC)c1", "Recombinant human FGFR1 (Homo sapiens, UniProt P11362)", 8]
]}

====

- STUDY SYSTEM: Recombinant human FGFR1 (Homo sapiens)
- ASSAY OVERVIEW: Transcreener Kinase Assay of FGFR1
- Type: biochemical
- CONDITIONS USED: read-out: FGFR1 (FP) IC50
- Procedure: Transcreener Kinase Assay of FGFR1 Prepare Solution • Compounds were solved in DMSO and were diluted with assay buffer to 5 folds of final concentration keeping the DMSO concentration at 5%. […] • [ADP] in Compound well represents the ADP concentration in compound well. • [ADP] in Positive control well represents the ADP concentration in 5% DMSO well • Conversion of mP value to ADP concentration is calculated based on the formula which determined by standard curve. […]
Each record is given Criterion met if its reported IC50 is strictly below 20 nM. Records at or above 20 nM are given Criterion not met.

{"columns": ["COMPOUND", "CLASSIFICATION"],
 "data": [
  ["CNC(=O)c1cc(COc2cnc(Nc3ccc(CC(=O)O)cc3)nc2)c(F)c(OC)c1 [Compound 207]", "Criterion not met"],
  ["CNC(=O)c1cc(CCc2cnc(Nc3cnn(CCN(C)C)c3)nc2)c(F)c(OC)c1 [Compound 125]", "Criterion not met"],
  ["CNC(=O)c1cc(COc2cnc(Nc3ccc(N4C[C@@H](C)N[C@@H](C)C4)c(F)c3)nc2)c(F)c(OC)c1 [Compound 195]", "Criterion met"],
  ["CONC(=O)c1cc(CCc2cnc(Nc3ccc(F)cc3)nc2)cc(OC)c1 [Compound 104]", "Criterion met"],
  ["CNC(=O)c1cc(CCc2cnc(Nc3ccn4ccnc4c3)nc2)c(F)c(OC)c1 [Compound 66]", "Criterion met"],
  ["CNC(=O)c1cc(CCc2cnc(Nc3ccc4c(C)n(C)nc4c3)nc2)c(Cl)c(OC)c1 [Compound 84]", "Criterion met"],
  ["CCN1CCC(n2cc(Nc3ncc(CCc4cc(C(=O)NC)cc(OC)c4Cl)cn3)cn2)CC1 [Compound 178]", "Criterion met"],
  ["CNC(=O)c1cc(CCc2cnc(Nc3cnn(C4CC4)c3)nc2)c(Cl)c(OC)c1 [Compound 119]", "Criterion met"],
  ["CNC(=O)c1cc(CCc2cnc(Nc3ccc(CN4CCOCC4)nc3)nc2)c(F)c(OC)c1 [Compound 98]", "Criterion not met"]
]}
